Molecular target: TIE2 intracellular domain/c-fms extracellular domain (TIE2/c-fms) chimeric protein (Homo sapiens, UniProt Q02763)
Construct: fused on or other part: c-fms (CSF1R) extracellular domain in place of TIE2's own ectodomain; it serves as the capture handle for the anti-c-fms ELISA; P07333 (Macrophage colony-stimulating factor 1 receptor)
Sequence (Q02763 whole entry, change not shown, the tested form may be a part): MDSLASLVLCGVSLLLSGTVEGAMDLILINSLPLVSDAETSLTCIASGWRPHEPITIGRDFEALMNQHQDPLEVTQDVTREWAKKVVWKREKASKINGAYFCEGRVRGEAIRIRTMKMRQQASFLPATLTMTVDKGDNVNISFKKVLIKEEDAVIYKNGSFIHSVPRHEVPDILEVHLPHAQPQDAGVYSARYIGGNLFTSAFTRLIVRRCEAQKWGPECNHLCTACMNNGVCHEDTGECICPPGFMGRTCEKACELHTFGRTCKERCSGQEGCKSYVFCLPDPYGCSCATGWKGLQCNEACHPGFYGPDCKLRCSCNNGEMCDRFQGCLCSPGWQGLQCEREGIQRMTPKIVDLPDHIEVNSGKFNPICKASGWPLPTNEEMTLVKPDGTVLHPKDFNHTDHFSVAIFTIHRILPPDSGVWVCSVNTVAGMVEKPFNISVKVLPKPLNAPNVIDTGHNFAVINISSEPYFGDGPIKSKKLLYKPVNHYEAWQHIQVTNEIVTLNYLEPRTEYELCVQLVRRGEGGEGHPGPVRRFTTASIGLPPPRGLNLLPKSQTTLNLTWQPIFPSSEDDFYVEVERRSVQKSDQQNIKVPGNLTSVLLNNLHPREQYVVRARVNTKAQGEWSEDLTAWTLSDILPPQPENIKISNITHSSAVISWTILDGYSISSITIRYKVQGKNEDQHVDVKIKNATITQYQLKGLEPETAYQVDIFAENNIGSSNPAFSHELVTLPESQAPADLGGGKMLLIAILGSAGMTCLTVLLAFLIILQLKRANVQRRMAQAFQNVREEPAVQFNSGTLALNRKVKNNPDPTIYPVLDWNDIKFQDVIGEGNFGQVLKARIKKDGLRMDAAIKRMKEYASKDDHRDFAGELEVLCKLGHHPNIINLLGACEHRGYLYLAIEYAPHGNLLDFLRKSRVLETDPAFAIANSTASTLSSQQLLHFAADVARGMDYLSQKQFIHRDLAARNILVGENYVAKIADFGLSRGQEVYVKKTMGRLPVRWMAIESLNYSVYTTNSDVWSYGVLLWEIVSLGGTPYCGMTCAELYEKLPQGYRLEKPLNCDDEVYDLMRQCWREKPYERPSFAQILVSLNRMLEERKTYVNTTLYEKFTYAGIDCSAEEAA
Experiment: TIE-2 Autophosphorylation Assay (TIE2-C)
Conditions: TIE2/c-fms expressing mouse 3T3 cells
Experimental: TIE-2 Autophosphorylation Assay (TIE2-C) The TIE-2 autophosphorylation assay uses an ELISA method and a TIE2 intracellular domain/c-fms extracellular domain (TIE2/c-fms) chimeric protein expressing mouse 3T3 cell line. […] The optical density at 450 nm derived from HRP catalyzed TMB is measured with a plate reader capable of reading at the appropriate wavelength (e.g. SpectroMax from Molecular Dynamics). The percent inhibition of activity is calculated relative to non-vanadate treated control wells. […]
property.measured: IC50

Cn1nc(-c2ccc(NC(=O)Nc3cc(C(C)(C)C)on3)c(F)c2)c2cnc(NCCCN3CCOCC3)nc21 [Example 134] : 100 to 300 nM

Now consider a different molecule.
# input Fill blank: measured IC50 of the molecule CC1CCCCN1CCCNc1ncc2c(-c3ccc(NC(=O)Nc4cc(C(C)(C)C)on4)c(F)c3)nn(C)c2n1 (centres unmarked) [Example 135] is ____.
# output ≥ 300 nM
